Biological target: DLG4_2, P78352
Sequence (P78352 155-259): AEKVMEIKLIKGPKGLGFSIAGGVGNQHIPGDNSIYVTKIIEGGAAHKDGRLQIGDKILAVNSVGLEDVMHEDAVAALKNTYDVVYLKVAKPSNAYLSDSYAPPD
Experiment: holdup assay
Set-up: key: below the threshold = too weak to quantify, mostly under pKd 3.1 to 4
Details: plain residues with an end cap or a label only (N-terminal biotin on a linker: ado-ado)
Record form. Attribute: pKd. Fill in for each entry.
Give bare numbers.

Some binders with recorded pKd:
1) TRKRSGEAAV [PFKM, P08237] :: 3.93
2) DGVNEKVSCV [HTR2A, P28223] :: 4.74
3) LESTTVGTSV [KARS1, Q15046] :: 4.35

Name the recorded pKd of the binder listed here: REEPDHSTEV [CCRL2, O00421]
4.66
